Cited source for all entries: patent US12037344B2

Tested on: THP-1 cells
protocol_details: Measurement of IL-1β production, hTRF protocol (second alternative procedure), THP-1 cells
Type: cell-based, human
stated_conditions: Homo sapiens, THP-1, IL-1β production, human; read-out: NLRP3 hILIB EC50
quantity: EC50 (nM)

Nc1nc2cc(-c3cc[nH]n3)ccc2c2cn(CCNC(=O)c3cc(CO)ccn3)nc12 [Example 57] : 2210

[1] COc1ccccc1C(=O)NCCn1cc2c(n1)c(N)nc1cc(-c3cc[nH]n3)ccc12 [Example 81]
[2] Nc1nc2cc(-c3cc[nH]n3)ccc2c2c1cnn2CCCN1CCOCC1 [Example 214]
[3] CC(C)NCCn1cc2c(N)nc3cc(-c4ccn[nH]4)ccc3c2n1 [Example 275]
Put the compounds in ascending order of EC50. I would appreciate it if you listed the labels in the requested order.
1, 3, 2
